Target system: T1, Mouse MMP-9 (R&D, 909-MM), APMA-activated (mouse, UniProt P41245 108-730, limits assumed)
T1 construct: also called mMMP-9; mouse MMP-9 (R&D Systems #909-MM-010)
T1 sequence (P41245 108-730 limits assumed): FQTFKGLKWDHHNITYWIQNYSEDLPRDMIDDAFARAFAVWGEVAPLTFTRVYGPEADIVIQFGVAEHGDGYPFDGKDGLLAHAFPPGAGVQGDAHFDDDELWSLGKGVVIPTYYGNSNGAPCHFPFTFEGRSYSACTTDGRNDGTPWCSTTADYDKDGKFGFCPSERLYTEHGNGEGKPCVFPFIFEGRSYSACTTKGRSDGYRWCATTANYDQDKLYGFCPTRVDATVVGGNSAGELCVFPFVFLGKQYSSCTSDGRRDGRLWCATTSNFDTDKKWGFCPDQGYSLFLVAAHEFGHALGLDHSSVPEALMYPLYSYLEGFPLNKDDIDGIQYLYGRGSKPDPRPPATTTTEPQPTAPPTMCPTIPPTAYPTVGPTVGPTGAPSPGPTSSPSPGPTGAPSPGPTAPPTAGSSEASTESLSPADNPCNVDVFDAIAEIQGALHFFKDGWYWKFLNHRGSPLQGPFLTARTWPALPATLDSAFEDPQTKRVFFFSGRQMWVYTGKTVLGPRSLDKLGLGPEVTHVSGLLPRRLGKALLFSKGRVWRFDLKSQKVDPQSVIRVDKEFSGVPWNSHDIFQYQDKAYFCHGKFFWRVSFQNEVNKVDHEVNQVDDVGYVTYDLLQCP
Assay procedure: Ki,app, enzyme inhibition assay (fluorogenic peptide substrate), medium-scale sFab
Ki values by entry
Recorded metric: Ki (nM)

binder="M0276-F11 (Fab, V domains shown, sFab; variable domains only; also called M276-F11) VH: EVQLLESGGGLVQPGGSLRLSCAASGFTFSWYDMWWVRQAPGKGLEWVSVIYSSGGPTFYADSVKGRFTISRDNSKNTLYLQMNSLRAEDTAVYYCAKDRAYGDYVGWNGFDYWGQGTLVTVSS VL: DIQMTQSPATLSLSPGERATLSCRASQSISSFLAWYQQKPGQAPRLLIYDASYRATGIPARFSGSGSGTDFTLTISSLEPEDYAVYYCQQRGNWPITFGQGTRLEIK" units_of_measure=nM endpoint_value=0.6
binder="M0307-F04 (Fab, V domains shown, sFab; variable domains only; also called M307-F04) VH: EVQLLESGGGLVQPGGSLRLSCAASGFTFSLYDMWWVRQAPGKGLEWVSVIYSSGGYTGYADSVKGRFTISRDNSKNTLYLQMNSLRAEDTAVYYCAKDRAYGDYVGWNGFDYWGQGTLVTVSS VL: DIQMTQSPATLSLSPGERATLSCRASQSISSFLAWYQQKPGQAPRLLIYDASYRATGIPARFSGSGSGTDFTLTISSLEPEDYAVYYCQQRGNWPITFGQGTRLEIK" units_of_measure=nM endpoint_value=0.4
binder="M0274-G08 (Fab, V domains shown, sFab; variable domains only; also called M274-G08) VH: EVQLLESGGGLVQPGGSLRLSCAASGFTFSVYDMWWVRQAPGKGLEWVSVIYPSGGATYYADSVKGRFTISRDNSKNTLYLQMNSLRAEDTAVYYCAKDRAYGDYVGWNGFDYWGQGTLVTVSS VL: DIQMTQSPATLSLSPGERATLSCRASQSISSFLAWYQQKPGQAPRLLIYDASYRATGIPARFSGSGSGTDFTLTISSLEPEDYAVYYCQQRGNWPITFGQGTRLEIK" units_of_measure=nM endpoint_value=0.6
binder="M0275-D03 (Fab, V domains shown, sFab; variable domains only; also called M275-D03) VH: EVQLLESGGGLVQPGGSLRLSCAASGFTFSQYDMWWVRQAPGKGLEWVSVIYPSGTTFYADSVKGRFTISRDNSKNTLYLQMNSLRAEDTAVYYCAKDRAYGDYVGWNGFDYWGQGTLVTVSS VL: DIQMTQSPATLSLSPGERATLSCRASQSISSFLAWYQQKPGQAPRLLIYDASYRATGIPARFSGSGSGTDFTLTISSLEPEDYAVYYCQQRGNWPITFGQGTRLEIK" units_of_measure=nM endpoint_value=1
